shrunken log2 fold change by entry:
System: Escherichia coli TOP10;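 also: peptides expressed intracellularly from a pBAD plasmid library in pooled LB shake-flask culture, induced with 0.3% L-arabinose, DNA abundance read by NGS, three biological replicates, DESeq2 with apeglm shrinkage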
Experiment: shrunken log2 fold change of peptide-encoding DNA abundance (4.5 h post-induction vs induction); higher = less antimicrobial activity (less host growth inhibition)
Details: time post-induction: 4.5 h; library: site-saturation at positions 5, 18, 19, 20
RECORDED_METRIC: shrunken log2 fold change

- ORDERED_RESIDUES: "RRIRPRPPRLPRPRPRPLFGPRP"
  MEASUREMENT: 0.142
- ORDERED_RESIDUES: "RRIRGRPPRLPRPRPRPMAFPRP"
  MEASUREMENT: 0.572
- ORDERED_RESIDUES: "RRIRARPPRLPRPRPRPSIWPRP"
  MEASUREMENT: 0.352
- ORDERED_RESIDUES: "RRIRERPPRLPRPRPRPMNQPRP"
  MEASUREMENT: -0.67
- ORDERED_RESIDUES: "RRIRQRPPRLPRPRPRPDADPRP"
  MEASUREMENT: -0.0253
- ORDERED_RESIDUES: "RRIRHRPPRLPRPRPRPFLIPRP"
  MEASUREMENT: -0.687
- ORDERED_RESIDUES: "RRIRMRPPRLPRPRPRPLLLPRP"
  MEASUREMENT: -0.32
- ORDERED_RESIDUES: "RRIRLRPPRLPRPRPRPCQRPRP"
  MEASUREMENT: -0.00788
- ORDERED_RESIDUES: "RRIRVRPPRLPRPRPRPNAKPRP"
  MEASUREMENT: 0.328
- ORDERED_RESIDUES: "RRIRMRPPRLPRPRPRPYCPPRP"
  MEASUREMENT: -0.066
- ORDERED_RESIDUES: "RRIRRRPPRLPRPRPRPRNCPRP"
  MEASUREMENT: -0.0356
- ORDERED_RESIDUES: "RRIRNRPPRLPRPRPRPPWWPRP"
  MEASUREMENT: 0.788
- ORDERED_RESIDUES: "RRIRARPPRLPRPRPRPIVPPRP"
  MEASUREMENT: 0.0453
- ORDERED_RESIDUES: "RRIRRRPPRLPRPRPRPYAQPRP"
  MEASUREMENT: -0.252
- ORDERED_RESIDUES: "RRIRSRPPRLPRPRPRPKSGPRP"
  MEASUREMENT: 0.0485
- ORDERED_RESIDUES: "RRIRIRPPRLPRPRPRPMPMPRP"
  MEASUREMENT: -0.0159
- ORDERED_RESIDUES: "RRIRWRPPRLPRPRPRPYRPPRP"
  MEASUREMENT: -0.573
- ORDERED_RESIDUES: "RRIRGRPPRLPRPRPRPGKDPRP"
  MEASUREMENT: 0.18
- ORDERED_RESIDUES: "RRIRDRPPRLPRPRPRPKCNPRP"
  MEASUREMENT: -0.13
- ORDERED_RESIDUES: "RRIRARPPRLPRPRPRPNNHPRP"
  MEASUREMENT: -0.381
- ORDERED_RESIDUES: "RRIRWRPPRLPRPRPRPVNNPRP"
  MEASUREMENT: 0.018
- ORDERED_RESIDUES: "RRIRMRPPRLPRPRPRPGEIPRP"
  MEASUREMENT: 0.995
- ORDERED_RESIDUES: "RRIRLRPPRLPRPRPRPMFPPRP"
  MEASUREMENT: -0.281
- ORDERED_RESIDUES: "RRIRQRPPRLPRPRPRPTDEPRP"
  MEASUREMENT: -0.131
- ORDERED_RESIDUES: "RRIRTRPPRLPRPRPRPMMGPRP"
  MEASUREMENT: -0.1
- ORDERED_RESIDUES: "RRIRFRPPRLPRPRPRPSRFPRP"
  MEASUREMENT: -0.0395
- ORDERED_RESIDUES: "RRIRVRPPRLPRPRPRPLKSPRP"
  MEASUREMENT: -0.137
- ORDERED_RESIDUES: "RRIRWRPPRLPRPRPRPYLVPRP"
  MEASUREMENT: -0.195
- ORDERED_RESIDUES: "RRIRQRPPRLPRPRPRPWGWPRP"
  MEASUREMENT: 0.546
- ORDERED_RESIDUES: "RRIRPRPPRLPRPRPRPMNRPRP"
  MEASUREMENT: -0.118
- ORDERED_RESIDUES: "RRIRRRPPRLPRPRPRPFYIPRP"
  MEASUREMENT: -0.039
- ORDERED_RESIDUES: "RRIRMRPPRLPRPRPRPPCDPRP"
  MEASUREMENT: 0.506
